# measurement_description: Water solubility test
# Assay type: physicochemical
# experimental_conditions: purified water, from amount of water required for dissolution
measured_attribute: Solubility (%)

a = COc1ccc(-c2cc(CN(C)C)c(=O)n(CC3CC3)n2)cc1F.Cl [Example 14]
b = Cc1ccc(-c2cc(CN(C)C)c(=O)n(CC(C)C)n2)cc1.Cl [Example 45]
c = COc1ccc(-c2cc(CN(C)C)c(=O)n(Cc3ccc(F)c(F)c3)n2)cc1F.Cl [Example 246]
d = COc1ccc(-c2cc(CCCN)c(=O)n(CC3CC3)n2)cc1F.Cl [Example 217]
Query :: Given 4 compounds, produce a descending ranking by Solubility (%). As an answer, provide the labels arranged in the order called for.
Result :: d, b, c, a
(d: 10%, b: 4%, c: 2%, a: 0.8%)

a = COc1ccc(-c2cc(CN)c(=O)n(CC3CC3)n2)cc1F.Cl [Example 25]
b = COc1ccc(-c2cc(CN)c(=O)n(CC3CCCC3)n2)cc1F.Cl [Example 188]
c = COc1ccc(-c2cc(CN3CCNCC3)c(=O)n(Cc3ccc(F)cc3)n2)cc1F.Cl.Cl [Example 193]
d = COc1ccc(-c2cc(CN)c(=O)n(Cc3ccc(F)cc3)n2)cc1F.Cl [Example 195]
Query :: Number of compounds to sort: 4. Sort criterion: Solubility (%), ascending. The reply should contain the labels ordered as requested.
Result :: b, d, a, c

The values you see were collected from patent US7211577B2.
